Each entry below lists one item and its recorded protein stability index value.
System: Saccharomyces cerevisiae
protocolNotes: protein stability index of tFT-peptide fusion (C-terminal peptide) (PSI (0-1 scale)); higher = more stable (slower turnover)
runParameters: genetic background: doa10 deletion; temperature: 30 C
API note: the answer field is a bare number with no unit suffix.

Observe how each entry below is paired with its result.
GLLSLSGLRWFC | 0.163
LRSPCALVLLLI | 0.213
SWVVLVSFLSWR | 0.233
ASFVCWSVCALG | 0.384
FVFFRFSLLFFF | 0.269
VFGFLVFYVCVR | 0.135
PCTFYLFWMFFV | 0.223
KIVNNTKKNKCH | 0.153

Short answer for `VTFCFLFVWFLV` : protein stability index was 0.23

Lab book: protein stability index of `VFLVFSVWVVYR` noted as 0.207

Reported protein stability index for `LNLACCWFVRCR` was 0.227

get_value(item= `LVFFLFFFRCFS` , readout=protein stability index) returns 0.373

The measured protein stability index associated with `WGCIFWFFDVRV` reads 0.203

----------
Below, each entry is listed with its recorded protein stability index.
Test system: Saccharomyces cerevisiae
protocolNotes: protein stability index of tFT-peptide fusion in wild type (PSI (0-1 scale)); higher = more stable (slower turnover)
runParameters: genetic background: wild type

Please review the following examples before continuing.
KKHNKGQKQKIN | 0.0428
PDKRNHLFKLLN | 0.112
FLMRWTFRYWVN | 0.0449
RVTRLDAIYFRG | 0.664
CKHKKGQKQKIN | 0.0815
RSLRVLLPLYFRR | 0.315

Note to self: protein stability index recorded for `PDKRNHEIKLLN` was 0.447

Recorded result, `LVTYLSCVACIN` , protein stability index: 0.0357

Per the record, `GSYMCSVGCWFR` has protein stability index of 0.411

For `RLVQPLPVQFLN` the sequence record lists protein stability index as 0.0538

Value of protein stability index reported for the sequence `FSMQWTFRYWVN` is 0.0371

Reported protein stability index of `LVVYLMCVACIN` : 0.0154

get_value(item= `LVVYLSCWACIN` , readout=protein stability index) returns 0.02

protein stability index measured on `PSLAASFWAVVG` = 0.601

protein stability index for `NRGAVGGWRLVG` is 0.164

----------
Test system: Saccharomyces cerevisiae
protocolNotes: protein stability index of tFT-peptide fusion (C-terminal peptide) (PSI (0-1 scale)); higher = more stable (slower turnover)
runParameters: genetic background: wild type; temperature: 30 C
Record Met whenever protein stability index is at 0.7 or higher; record Not met when lower.

GAGRGGGRGRRW | Not met
CSAAVVQSSGSE | Not met
APPSPTSPPTPP | Not met

// query Dear colleague, could you confirm whether `GVGLGGFGVWGV` has protein stability index at or above 0.7?
// result Met

// query Hi team, for `PPPPPSPSASSP` , is the recorded protein stability index at or above 0.7?
// result Not met

// query Given the entry `YILIKEVLYAVC` , answer whether its protein stability index meets or surpasses 0.7.
// result Not met

// query Say whether `SVLASFFSAFVC` shows protein stability index of 0.7 or more.
// result Not met

----------
Test system: Saccharomyces cerevisiae
protocolNotes: protein stability index of tFT-peptide fusion in wild type (PSI (0-1 scale)); higher = more stable (slower turnover)
runParameters: genetic background: wild type
Parameter class (string): assigned from measured protein stability index. Ranges: interval 1: < 0.2; interval 2: ≥ 0.2 and < 0.5; interval 3: ≥ 0.5

Study these solved cases before continuing.
CLVSVPILLFFR | interval 1
CTSAGYKFRTNN | interval 2
LVVYLSCYACIN | interval 1
CTSCGYKFLTNN | interval 2
GLYMCSVGCWFP | interval 3

// query Exercise: read the entry `RLIQPLPVQFLY` and state which class it falls under.
// result interval 2

// query Returns: class label. Input: `CITLPMCPLLLR`
// result interval 1

// query Categorize the following entry: `LQVYLSCVACIN`
// result interval 1

// query // bin(item) where item = `CTSCGYKFRTNI`
// result interval 3

// query Which band does `KKHKKGQKDKIN` fall in?
// result interval 3

----------
Tested on: Saccharomyces cerevisiae
protocolNotes: protein stability index of tFT-peptide fusion (C-terminal peptide) (PSI (0-1 scale)); higher = more stable (slower turnover)
runParameters: genetic background: wild type; temperature: 30 C
valueKind: protein stability index
Number only, please.

Example entries begin here.
VTLFGVFQGFVG | 0.709
NKFLRSVVRKHE | 0.671
WSRSGGWEKYGV | 0.681
VLRRALIIELLE | 0.66

Quick note, protein stability index for `GKWVWSSFVWFG` landed at 0.19

Consider `PPLPPPSPESVS` . Its measured protein stability index is 0.709

In plain terms, `TIGREENKIANI` has a documented protein stability index of 0.651

Summary for this sequence, `GGVGAFAARRFA` : protein stability index is 0.634

Per the records, this sequence ( `SVRSVFVFGVIK` ) has protein stability index equal to 0.664

Documented protein stability index of `ITIVVATRPPGA` : 0.617

Record summary for `TTPTAPCLSSHD` : reported protein stability index = 0.69

Measured protein stability index, `GVTNRQMAWCFS` : 0.606

Per the records, this sequence ( `SPLISYQPPTDP` ) has protein stability index equal to 0.725

Short answer for `LDRGPFADQAPH` : protein stability index was 0.678

----------
Test system: Saccharomyces cerevisiae
protocolNotes: protein stability index of tFT-peptide fusion in wild type (PSI (0-1 scale)); higher = more stable (slower turnover)
runParameters: genetic background: wild type
Outcome label depends on protein stability index relative to 0.1: at/above gives criterion met, below gives criterion not met.

Consider the following illustrative entries.
RSLRVWLPLYFR | criterion met
CTSCGYKFQTNN | criterion met
LKILRQKMNHQY | criterion met

// query Quick check: does `GLYMCSYGCWFR` have protein stability index greater than or equal to 0.1?
// result criterion met

// query Could you tell me if the measured protein stability index of `PDKRNRLIKLLN` reaches 0.1 or more?
// result criterion met

// query protein stability index >= 0.1 for `LVVRLSCVACIN` ?
// result criterion not met

// query Identify whether the reported protein stability index of the following sequence is 0.1 or greater: `LTSCGYKFRTNN`
// result criterion met

----------
Each entry below lists one item and its recorded protein stability index value.
Tested on: Saccharomyces cerevisiae
protocolNotes: protein stability index of tFT-peptide fusion (C-terminal peptide) (PSI (0-1 scale)); higher = more stable (slower turnover)
runParameters: genetic background: wild type; temperature: 30 C
Output spec: single numeric token, no unit.

// known answers, use as guide
FSLLLSLSLFHC | 0.31
PPPRSLSPPLLS | 0.409
LPPPPRPPPPPP | 0.663
SRRLAFSTVLPA | 0.664
EGGETLLGAKGR | 0.639
PHRPIGRVKHAS | 0.71
RSPKGKKRVGKW | 0.714
GGVLLPGFSHLL | 0.713
PGRLVVGAGRED | 0.707
GVTDRGIDCGIK | 0.658

// `FSFPAFTFIVSI` : protein stability index value = 0.436

// field: protein stability index; key: `LPPAIPSTPPTP` ; value = 0.756

Recorded protein stability index (sequence `FCIIVFYIFVGI` ): 0.382

What the record says about `GPHAPPPSFPAP` : protein stability index is 0.718

protein stability index measured on `PPPRPPPAPLAS` = 0.705

protein stability index in this record for `KPPPSISLSWLE` : 0.716

Entry under test: `FPFFSSIPPRVV` . Its protein stability index was 0.574

# protein stability index (sequence: `PSPTTSRFAPPP` ) is 0.53

Measured protein stability index of `CWLFVWVRVISL` : 0.186

----------
System: Saccharomyces cerevisiae
protocolNotes: protein stability index of tFT-peptide fusion (C-terminal peptide) (PSI (0-1 scale)); higher = more stable (slower turnover)
runParameters: genetic background: das1 deletion; temperature: 30 C
valueKind: protein stability index
The answer should be written as a number, with no unit following it.

Before answering, review these 3 worked examples.
GQHTKTTGRRRA [RPS18A C-terminal 12 aa] | 0.7
VKTKFFPLSSSI [YDR199W C-terminal 12 aa] | 0.738
ISWLEKMKKFFH [MAM33 C-terminal 12 aa] | 0.716

Recorded protein stability index (sequence PELSSTVSHNRA [WSC3 C-terminal 12 aa] ): 0.693

The sequence MFKCARQSEFDK [MTG2 C-terminal 12 aa] showed protein stability index equal to 0.688

# sequence EIKQRNLRMQRQ [MPO1 C-terminal 12 aa] ; its protein stability index = 0.683

// provenance: the supplement of paper PMC10724198
